Catalogue of compounds with associated growth inhibition
Assay: NCI Yeast Anticancer Drug Screen. Data for the mlh1 rad18 strain (AID 175)
Details: S. cerevisiae mlh1 rad18 strain growth inhibition; at 50.0 µM; stronger effect = higher value
Description: Growth inhibition of yeast strains with defined genetic alterations is measured as a screen for potential anti-cancer activity. Selected strains with alterations in DNA damage repair or cell cycle control were exposed to compounds and growth inhibition was measured relative to vehicle treated controls. The strain used in this assay is mlh1 rad18
About 79,000 compounds went through this panel and 15% of them were active in at least one assay; those are over-represented in the sample as a whole.

{"columns": ["compound", "readout_units", "growth inhibition"],
 "data": [
  ["Cc1ccc(O)c(C(=O)CCCC(=O)c2cc(C)ccc2O)c1", "%", 4.35],
  ["NCCS/C=C/C(=O)Oc1ccc(Br)cc1", "%", 53.9],
  ["N#Cc1c(-c2ccco2)c2c(n(C3OC(CO)C(O)C(O)C3O)c1=S)CCCC2 (stereo not given)", "%", 14.8],
  ["COc1ccc(/C(=N\\NC(=O)C(N)=O)C(c2ccc(OC)cc2)C2(O)C(=O)Nc3c(Cl)cccc32)cc1 (stereo not given)", "%", -23.1],
  ["C=Cc1ccc(OC2OC(CO)C(OC3OC(CO)C(O)C(O)C3O)C(O)C2O)cc1 (stereo not given)", "%", -2.8],
  ["CC(C)NC(=O)Oc1ccccc1C(=O)OCc1ccccc1", "%", 21.2],
  ["COc1ccc(NC(=O)CC(=O)N2N=C(N(CCC#N)c3ccccc3Cl)CC2c2ccccc2)cc1 (stereo not given)", "%", -28.9],
  ["Cc1ccc(S(=O)(=O)CCCCS(=O)(=O)c2ccc(C)cc2)cc1", "%", 2.3],
  ["O.O.[Cu+2].[Cu+2].[NH-]CCC(=O)[N-]C(Cc1cnc[nH]1)C(=O)O.[NH-]CCC(=O)[N-]C(Cc1cnc[nH]1)C(=O)O (stereo not given)", "%", 11.8],
  ["O=c1[nH]c(=O)n(C2CC(O)C(CO)O2)cc1C#Cc1ccc(C(F)(F)F)cc1 (stereo not given)", "%", -13.7],
  ["CCCCCCCCCCCCCCCC(=O)NC(CCCCN)C(=O)NC(CCCCN)C(=O)OCC (stereo not given)", "%", 65.5],
  ["COc1ccc(SSc2ccc(OC)cc2)cc1", "%", 18.8],
  ["COc1cc(/C=C/c2cc(/C=C/c3ccc(O)c(OC)c3)c([N+](=O)[O-])cc2[N+](=O)[O-])ccc1O", "%", 47.7],
  ["NC(N)=NC(=O)c1ccc(N)cc1", "%", 23.5],
  ["CC(=O)NC1C(OCc2ccccc2)OC(CO)C(O)C1OCc1ccccc1 (stereo not given)", "%", -11.8],
  ["CC1CC[N-]C(N)N1.CC1CC[N-]C(N)N1.[Cl][Pd][Cl] (stereo not given)", "%", -7.1],
  ["COc1ccc(C2S/C(=C\\c3cccc(OC)c3)C(=O)N2NC(=O)Cc2ccccc2)cc1 (stereo not given)", "%", -10.8],
  ["CCOc1c(N=Nc2ccccc2Cl)c(C)nn1C(N)=S", "%", 49.4],
  ["CCOC(=O)CC(=O)c1ccccc1SC", "%", 17.4],
  ["CCC(=O)Oc1ccc[nH]c1=O", "%", 14.2],
  ["COC1=CC(=O)C(CC=C(C)C)=CC1=O", "%", -3.2],
  ["Cc1nn(C(=S)S)c(C)c1N=Nc1ccc(O)cc1", "%", 18.6],
  ["CSc1nc(=S)c2[nH]c(Cl)nc2[nH]1", "%", 0.25],
  ["O=C1NC(=O)C(=NC2C(=O)NC(=O)NC2=O)C(=O)N1", "%", 19.8],
  ["O=C(O)CC(Cc1ccccc1)C(=O)O (stereo not given)", "%", 2.05],
  ["COc1ccc(CN2CCCN(Cc3ccc(OC)cc3)C2c2ccc([N+](=O)[O-])cc2)cc1", "%", -16.6],
  ["CC(C)CC(NC(=O)c1ccccc1C(=O)O)C(N)=O (stereo not given)", "%", -19],
  ["OCCC(CO)Cc1ccc2c(c1)OCO2 (stereo not given)", "%", -36.3],
  ["CCC(CC)(CC#N)C1CCCCC1", "%", -8.2],
  ["CC(SSc1ccc(C(C)(C)C)cc1)c1ccccc1 (stereo not given)", "%", -1.4],
  ["CCC(=O)OCC1OC(Oc2ccc(N=Nc3ccccc3)cc2)C(OC(=O)CC)C(OC(=O)CC)C1OC(=O)CC (stereo not given)", "%", 28.2],
  ["O=C(O)c1c(Br)c(Br)c(Br)c(Br)c1C(=O)Nc1ccccc1C(F)(F)F", "%", -12.2],
  ["O=[N+]([O-])c1ccc(SC2=NCCCN2)c(Cl)c1", "%", 26.1],
  ["N#CC(C#N)=C(C#N)Nc1ccc(F)cc1", "%", -0.4],
  ["O=S1(=O)C(Cl)=C(O)c2ccccc21", "%", 11.4],
  ["Br/C(=N\\Nc1nn[nH]n1)c1ccncc1", "%", -28.9],
  ["CCCCCC/C=C/C(N)=O", "%", 8.35],
  ["CC(=O)NNc1nc(C)c(C(=O)NNC(=O)C(=O)Nc2cccc(C(C)=O)c2)s1", "%", -12.3],
  ["CC12CCc3ccccc3C1=NNC(=O)C2 (stereo not given)", "%", -6.15],
  ["CC(C)NC(=O)CCSCCC(=O)NC(C)C", "%", 10.1]
]}

* * *

Assay: NCI Yeast Anticancer Drug Screen. Data for the mlh1 rad18 strain (AID 175)
Conditions: S. cerevisiae mlh1 rad18 strain growth inhibition; at 50.0 µM; stronger effect = higher value
Description: Growth inhibition of yeast strains with defined genetic alterations is measured as a screen for potential anti-cancer activity. Selected strains with alterations in DNA damage repair or cell cycle control were exposed to compounds and growth inhibition was measured relative to vehicle treated controls. The strain used in this assay is mlh1 rad18
About 79,000 compounds went through this panel and 15% of them were active in at least one assay; those are over-represented in the sample as a whole.

{"columns": ["molecule", "readout_units", "growth inhibition"],
 "data": [
  ["CC(C)(C)CC(C)(O)C(=O)O (stereo not given)", "%", -3.55],
  ["N/C(=N\\Cl)C(Cl)(Cl)Cl", "%", -21.4],
  ["O=c1[nH]nc(S(=O)(=O)N2CCCC2)c(=O)[nH]1", "%", -13.2],
  ["ClC1CCCCC1", "%", -31.2],
  ["CCc1c(C)c(C#N)c(=S)n(C2OC(COC(C)=O)C(OC(C)=O)C(OC(C)=O)C2OC(C)=O)c1-c1ccccc1 (stereo not given)", "%", 13.6],
  ["CC(=O)OCC1OC(Nc2[nH]c(=O)n(C)c(=O)c2-c2csc(N)n2)C(OC(C)=O)C(OC(C)=O)C1OC(C)=O (stereo not given)", "%", -8.6],
  ["COc1cc2c(cc1OC)C1=Cc3cc(OC)c(OC)cc3C(C)N1C=C2 (stereo not given)", "%", -16.7],
  ["Cc1cccc(Cl)c1N=Nc1c(C)nn(C(N)=S)c1C", "%", 17.1],
  ["N/C(=N\\OC(=O)NC(Cl)=C(Cl)Cl)c1ccc(Cl)cc1", "%", -7.95],
  ["COc1cc(C(=O)C/C(CCC(=O)Nc2ccc(Cl)cc2Cl)=N/Nc2nnc(C)n2N)ccc1O", "%", -5.05],
  ["Cc1cc(=O)n(-c2ccccc2)c(=O)n1-c1nc2ccccc2[nH]1", "%", 32],
  ["O=[N+]([O-])C(C(Cl)=C(Cl)Cl)=C(n1nnc2ccccc21)n1nnc2ccccc21", "%", 21.1],
  ["C/C(=N\\O)C1(C)CC=CCC1C(=O)O (stereo not given)", "%", 1.4],
  ["CC(C)(C)OC(=O)N(CCCCNC(=O)C(F)(F)F)CCCNC(=O)C(F)(F)F", "%", -86],
  ["O=[N+]([O-])c1ccc(Cl)c(F)c1Cl", "%", -12.2],
  ["CCCC(CCC)C(=O)OCC(=O)c1ccc(-c2ccccc2)cc1", "%", -0.1],
  ["c1ccc(N2CCSCC2)cc1", "%", -7.15],
  ["OCn1c2ccccc2c2ccccc21", "%", 19.8],
  ["O=c1[nH]c(=O)c2[nH]cnc2[nH]1", "%", 9.75],
  ["O=C1CSC(c2ccccc2[N+](=O)[O-])N1c1ccc(-n2c(-c3ccccc3)nc3ccccc3c2=O)cc1 (stereo not given)", "%", 7.6]
]}

* * *

experiment: NCI Yeast Anticancer Drug Screen. Data for the cln2 rad14 strain (AID 165);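 also: 0% = growth equal to vehicle treated cultures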; details: S. cerevisiae cln2 rad14 strain, at 50.0 µM, stronger effect = higher value
The panel holds about 79,000 compounds, 15% with a hit somewhere; the sample as a whole holds those more often.

{"columns": ["structure", "growth inhibition, %"],
 "data": [
  ["NC(=S)NNC(=O)c1ccc([N+](=O)[O-])cc1", -17.9],
  ["C=CCCC(=O)OC(C)(C)C", 7.2],
  ["O=S(=O)(O/C(=C(\\OS(=O)(=O)C(F)(F)F)c1ccccc1)c1ccccc1)C(F)(F)F", -4.8]
]}

# credit: PubChem BioAssay (NCI)
